- system_tested: T1, recombinant human CD63 extracellular loop 2 expressed with a C-terminal Myc-Myc-hexahistidine (human)
- T1 construct: also called hCD63 EC loop 2-MMH; human CD63 EC loop 2-MMH
- method: SPR Biacore, mAb captured, 37C
- Protocol: Equilibrium dissociation constants (KD) for different CD63 (EC2) loop reagents binding to purified anti-CD63 monoclonal antibodies were determined using a real-time surface plasmon resonance based Biacore T200 biosensor or Biacore 2000 biosensor. […] The association rate (Kₐ) and dissociation rate (kd) were determined by fitting the real-time binding sensorgrams to a 1:1 binding model with mass transport limitation using Scrubber 2.0c curve-fitting software. […]
pKd: −log10 of the molar value.
Reported pKd values follow for various binders

binder	pKd
H2M12452N (antibody, V domains shown, also called H2aM12452N) VH: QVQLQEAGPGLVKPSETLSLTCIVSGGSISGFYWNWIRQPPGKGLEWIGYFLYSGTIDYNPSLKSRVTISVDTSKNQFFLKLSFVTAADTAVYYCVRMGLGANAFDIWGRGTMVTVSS VL: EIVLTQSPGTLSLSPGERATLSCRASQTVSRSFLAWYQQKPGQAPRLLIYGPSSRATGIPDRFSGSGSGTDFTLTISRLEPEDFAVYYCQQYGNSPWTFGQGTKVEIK	8.16
H2M13022N (antibody, V domains shown, also called H2bM13022N) VH: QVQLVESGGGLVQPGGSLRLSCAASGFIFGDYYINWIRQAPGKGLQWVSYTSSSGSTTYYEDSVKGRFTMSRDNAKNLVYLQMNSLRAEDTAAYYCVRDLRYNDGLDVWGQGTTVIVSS VL: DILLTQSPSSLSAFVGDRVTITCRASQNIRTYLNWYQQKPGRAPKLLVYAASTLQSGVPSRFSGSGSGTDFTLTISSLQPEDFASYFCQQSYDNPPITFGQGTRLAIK	7.67
H1M12388N (antibody, V domains shown) VH: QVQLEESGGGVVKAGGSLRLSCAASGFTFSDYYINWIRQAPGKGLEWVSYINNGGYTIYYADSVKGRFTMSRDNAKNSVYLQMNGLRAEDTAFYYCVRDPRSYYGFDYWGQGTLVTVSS VL: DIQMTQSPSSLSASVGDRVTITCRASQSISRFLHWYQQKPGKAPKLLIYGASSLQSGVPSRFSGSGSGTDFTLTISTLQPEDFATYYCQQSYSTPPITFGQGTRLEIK	8.30
H2M12395N (antibody, V domains shown, also called H2aM12395N) VH: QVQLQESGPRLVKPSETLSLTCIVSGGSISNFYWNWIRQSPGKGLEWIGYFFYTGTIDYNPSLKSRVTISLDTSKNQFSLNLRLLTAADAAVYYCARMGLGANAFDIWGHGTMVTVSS VL: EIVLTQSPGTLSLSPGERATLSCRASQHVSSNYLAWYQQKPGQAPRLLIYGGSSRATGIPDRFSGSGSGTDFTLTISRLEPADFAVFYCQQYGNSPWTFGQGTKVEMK	7.25
H2M12450N (antibody, V domains shown, also called H2aM12450N; mAb12450) VH: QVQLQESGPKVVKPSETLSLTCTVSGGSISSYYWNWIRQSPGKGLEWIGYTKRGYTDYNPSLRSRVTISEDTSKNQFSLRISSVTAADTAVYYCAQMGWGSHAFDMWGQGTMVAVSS VL: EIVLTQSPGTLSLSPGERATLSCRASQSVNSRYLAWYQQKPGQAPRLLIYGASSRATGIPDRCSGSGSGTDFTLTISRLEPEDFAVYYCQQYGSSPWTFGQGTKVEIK	8.94
